- System: Plutella xylostella
- ASSAY_METHOD_TEXT: Example B8: Plutella xylostella (diamond back moth), artificial diet 24-well, eggs
- Assay type: in vivo
- CONDITIONS_USED: 192 h, application rate of 200 ppm, 8 days after infestation, read-out: effect in at least one of the two categories (mortality or growth inhibition)
Each entry below carries its recorded percent effect (mortality or growth inhibition) at 200 ppm.
VALUE_TYPE: percent effect (mortality or growth inhibition) at 200 ppm

MOLECULE | ENDPOINT_VALUE
COc1cc(NC(=O)N[C@@H](C)c2ncnn2-c2ncccn2)c(Cl)cc1Cl [Example P265] | ≥ 80%
C[C@H](NC(=O)Nc1cc(OC(F)(F)F)c(F)cc1Br)c1ncnn1-c1ncccn1 [Example P316] | ≥ 80%
C[C@H](NC(=O)Nc1cc(OC(F)(F)C(F)F)c(Cl)cc1Cl)c1nccnc1-c1ncccn1 [Example P135] | ≥ 80%
C[C@H](NC(=O)Nc1ccc(C(F)(F)F)cc1I)c1ncnn1-c1ccc(C#N)cn1 [Example P256] | ≥ 80%
C[C@H](NC(=O)Nc1cc(OC(F)(F)F)c(Cl)cc1F)c1ncnn1-c1ncccn1 [Example P214] | ≥ 80%
C[C@H](NC(=O)Nc1cc(Cl)c(OC(F)(F)C(F)C(F)(F)F)cc1Cl)c1ncnn1-c1ncccn1 (some centres unmarked) [Example P211] | ≥ 80%
C[C@H](NC(=O)Nc1cc(Cl)ccc1C(F)(F)F)c1ncnn1-c1ncccn1 [Example P12] | ≥ 80%
C[C@H](NC(=S)Nc1ccc(C(F)(F)F)cc1Cl)c1ncnn1-c1ncccn1 [Example P129] | ≥ 80%
